Molecular target: T1, P2-AA-12HAA-V
T1 chain: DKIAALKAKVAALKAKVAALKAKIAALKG
Assay: two-hybrid library CCmax;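 further: natural log of median RNA to DNA barcode read ratio; higher means stronger binding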
Conditions: mean of both orientations
READOUT NAME: interaction score
// keep it numeric: no unit symbol after the value

Please review the following examples before continuing.
# BINDER, MEASUREMENT
measured = [
    ("DEIAALEAELAALEAELAALEAEIAALEG [P1-AA-12HAA-L]", 2.38),
    ("DEIAALEAEAAALEAEAAALEAEIAALEG [P1-AA-12HAA-A]", 1.9),
    ("DEIAALEAEVAALEAEVAALEAEIAALEG [P1-AA-12HAA-V]", 2.21),
    ("DEIAALEAEKAALEAEKAALEAEIAALEG [P1-AA-12HAA-K]", 1.38),
    ("DEIAALEAEEAALEAEEAALEAEIAALEG [P1-AA-12HAA-E]", 1.49),
    ("DEIAALEAEDAALEAEDAALEAEIAALEG [P1-AA-12HAA-D]", -0.204),
]

Could you now look at the following binder, please?
Q: Any idea what its interaction score is? The binder is DEIAALEAEHAALEAEHAALEAEIAALEG [P1-AA-12HAA-H]
Result: 1.78
